target: PfLysRS (Plasmodium falciparum, UniProt Q8IDJ8); construct: PfLysRS (77–583) was constructed in the vector pET20b, with a C-terminal 6×His tag; 6xHis (C); made in house; host or cells: E. coli BL21 (DE3); assay: Thermal shift assay; format: binding; conditions: in the presence of L-lysine
Sequence (Q8IDJ8 entry or part of it): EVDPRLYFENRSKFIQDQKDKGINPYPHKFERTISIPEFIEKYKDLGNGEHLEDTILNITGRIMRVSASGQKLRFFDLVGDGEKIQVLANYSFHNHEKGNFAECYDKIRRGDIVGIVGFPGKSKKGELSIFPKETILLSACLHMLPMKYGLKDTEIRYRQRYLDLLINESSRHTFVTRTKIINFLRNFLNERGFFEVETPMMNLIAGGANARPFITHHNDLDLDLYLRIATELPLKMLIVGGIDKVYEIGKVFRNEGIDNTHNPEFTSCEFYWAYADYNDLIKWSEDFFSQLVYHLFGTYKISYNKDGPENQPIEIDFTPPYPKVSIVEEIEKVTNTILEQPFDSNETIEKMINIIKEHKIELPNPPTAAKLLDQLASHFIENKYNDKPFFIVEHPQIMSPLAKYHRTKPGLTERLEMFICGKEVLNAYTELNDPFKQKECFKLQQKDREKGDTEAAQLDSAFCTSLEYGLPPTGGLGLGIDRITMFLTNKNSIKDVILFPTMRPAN

>  <compound>
COc1ncccc1Nc1ncnc(Nc2ccccc2S(=O)(=O)C(C)C)n1 [Compound 38a]

>  <ΔTm at 200 µM (°C)>
7.9

$$$$
>  <compound>
COc1cnc(OC)c(Nc2ncnc(Nc3ccccc3S(=O)(=O)C(C)C)n2)c1 [Compound 36a]

>  <ΔTm at 200 µM (°C)>
10.7

$$$$
>  <compound>
COc1ccc(OC)c(Nc2ncnc(Nc3ccccc3S(=O)(=O)C(C)C)n2)c1 [Compound 36]

>  <ΔTm at 200 µM (°C)>
11.8

$$$$
>  <compound>
COC(=O)c1ccc(OC)c(Nc2ncnc(Nc3ccccc3S(=O)(=O)C(C)C)n2)c1 [Compound 34]

>  <ΔTm at 200 µM (°C)>
7.9

$$$$
